Assay Target: mouse TAPP2 C-terminal PH domain (residues 174 to 425), GST fusion (Mus musculus)
Sequence (Q9ERS5 174-425): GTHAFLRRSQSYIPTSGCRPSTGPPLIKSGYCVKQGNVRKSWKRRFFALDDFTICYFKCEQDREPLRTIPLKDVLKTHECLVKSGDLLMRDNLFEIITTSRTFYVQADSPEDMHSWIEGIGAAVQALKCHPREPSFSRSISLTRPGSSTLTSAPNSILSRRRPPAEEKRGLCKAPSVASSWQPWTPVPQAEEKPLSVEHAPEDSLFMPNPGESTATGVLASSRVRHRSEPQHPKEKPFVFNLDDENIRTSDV
Assay Details: Surface plasmon resonance (BIACore), GST fusion binding to phosphoinositide in supported lipid monolayer
Cond: read-out: apparent Kd
Property Measured: pKd
Quick note: pKd means taking -log10 of the concentration in moles per liter.

q: Requested read-out: pKd. Entry: CCCCCCCCCCCCCCCC(=O)OC[C@H](COP(=O)(O)O[C@H]1[C@H](O)[C@@H](O)[C@H](OP(=O)(O)O)[C@@H](OP(=O)(O)O)[C@H]1O)OC(=O)CCCCCCCCCCCCCCC [PtdIns(3,4)P2]
a: 7.52
